# TGT: CCDC6-RET-BaF3 (Homo sapiens)
# Construct: fused on or other part: Q16204 (Coiled-coil domain-containing protein 6)
# Sequence (P07949 whole entry, change not shown, the tested form may be a part): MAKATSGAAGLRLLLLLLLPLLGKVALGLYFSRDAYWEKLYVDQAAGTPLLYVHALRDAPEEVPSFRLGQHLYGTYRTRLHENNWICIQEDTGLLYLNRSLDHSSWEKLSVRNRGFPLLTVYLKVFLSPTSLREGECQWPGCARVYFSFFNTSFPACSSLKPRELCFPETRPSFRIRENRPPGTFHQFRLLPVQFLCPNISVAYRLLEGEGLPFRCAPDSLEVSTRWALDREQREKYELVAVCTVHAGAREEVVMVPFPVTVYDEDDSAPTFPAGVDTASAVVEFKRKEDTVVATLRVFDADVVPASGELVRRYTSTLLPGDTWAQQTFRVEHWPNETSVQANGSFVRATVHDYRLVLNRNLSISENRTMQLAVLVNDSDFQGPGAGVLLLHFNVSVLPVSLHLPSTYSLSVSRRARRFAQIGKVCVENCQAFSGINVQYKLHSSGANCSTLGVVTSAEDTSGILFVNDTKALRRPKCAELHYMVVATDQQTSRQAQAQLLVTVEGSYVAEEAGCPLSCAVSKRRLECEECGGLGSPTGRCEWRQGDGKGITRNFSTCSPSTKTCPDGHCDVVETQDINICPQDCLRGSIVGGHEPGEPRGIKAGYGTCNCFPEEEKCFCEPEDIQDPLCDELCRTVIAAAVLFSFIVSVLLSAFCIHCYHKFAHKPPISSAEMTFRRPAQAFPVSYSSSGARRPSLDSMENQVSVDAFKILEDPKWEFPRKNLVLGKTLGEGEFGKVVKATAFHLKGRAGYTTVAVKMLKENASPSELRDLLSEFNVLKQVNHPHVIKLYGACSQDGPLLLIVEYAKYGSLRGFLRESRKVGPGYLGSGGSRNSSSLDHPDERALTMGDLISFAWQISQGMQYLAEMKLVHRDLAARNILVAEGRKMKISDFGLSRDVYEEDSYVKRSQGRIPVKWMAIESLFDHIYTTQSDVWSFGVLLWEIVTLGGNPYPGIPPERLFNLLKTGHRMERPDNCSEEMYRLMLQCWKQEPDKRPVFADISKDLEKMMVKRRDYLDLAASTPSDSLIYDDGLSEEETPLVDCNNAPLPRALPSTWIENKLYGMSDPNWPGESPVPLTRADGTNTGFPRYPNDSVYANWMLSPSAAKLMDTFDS
# PROTOCOL_TEXT: Growth inhibition of CCDC6-RET-BaF3 cells stably transfected with kinase (MTS)
# Type: cell-based
# CONDITION_DETAILS: 48 h, read-out: CCDC6-RET (IC50/nM)
GI50: recorded values
API: value field is a number in nM; no unit string.

Below: 2 compounds and their reported GI50.
COMPOUND_STRING: CN1CCN(Cc2ccc(NC(=O)c3cc(Oc4nc(-c5cccnc5)nc5c4ncn5C)ccc3Cl)cc2C(F)(F)F)CC1
NUMERIC_READOUT: 1470
--
COMPOUND_STRING: CCS(=O)(=O)NC1CCN(c2ccc(NC(=O)c3ccc(C)c(Oc4nc(-c5cccnc5)nc5c4cnn5C)c3)cc2C(F)(F)F)CC1
NUMERIC_READOUT: 73.9

Request: Identify measured GI50 associated with Cc1ccc(Oc2nc(-c3cccnc3)nc3ccn(C)c23)cc1NC(=O)c1ccc(CN2CCN(C)CC2)c(C(F)(F)F)c1
Response: 4260

Request: Identify measured GI50 associated with Cc1ccc(Oc2nc(-c3ccsc3)nc3c2ncn3C)cc1C(=O)Nc1ccc(CN2CCN(C)CC2)c(C(F)(F)F)c1
Response: 2030

Request: Identify measured GI50 associated with CN1CCN(Cc2ccc(NC(=O)c3cccc(Oc4nc(-c5cccnc5)nc5ccsc45)c3)cc2C(F)(F)F)CC1
Response: 2640

Request: Identify measured GI50 associated with CN1CCN(Cc2ccc(NC(=O)c3cc(Oc4nc(-c5cccnc5)nc5nn(C)cc45)ccc3Cl)cc2C(F)(F)F)CC1
Response: 1980

Request: Identify measured GI50 associated with CCC(=O)NCC1CCN(c2ccc(NC(=O)c3ccc(C)c(Oc4nc(-c5cccnc5)nc5cc[nH]c45)c3)cc2C(F)(F)F)CC1
Response: 149

Request: Identify measured GI50 associated with CN1CCN(Cc2ccc(NC(=O)c3cccc(Oc4nc(-c5ccncc5)nc5c4ncn5C)c3)cc2C(F)(F)F)CC1
Response: 25.2

Request: Identify measured GI50 associated with Cc1ccc(Oc2nc(-c3ccc(Cl)cc3)nc3nn(C)cc23)cc1C(=O)Nc1ccc(CN2CCN(C)CC2)c(C(F)(F)F)c1
Response: 2960

Request: Identify measured GI50 associated with CN1CCN(Cc2ccc(NC(=O)c3cc(Oc4nc(-c5ccc(O)cc5)nc5c4ncn5C)ccc3Cl)cc2C(F)(F)F)CC1
Response: 903

Request: Identify measured GI50 associated with CN1CCN(Cc2ccc(C(=O)Nc3cccc(Oc4cc(-c5ccncc5)nc5sccc45)c3)cc2C(F)(F)F)CC1
Response: 637

Request: Identify measured GI50 associated with CN1CCN(Cc2ccc(C(=O)Nc3cccc(Oc4nc(-c5cccnc5)nc5[nH]ncc45)c3)cc2C(F)(F)F)CC1
Response: 343

* * *

# TGT: CCDC6-RET-BaF3 (Homo sapiens)
# Construct: fused on or other part: Q16204 (Coiled-coil domain-containing protein 6)
# PROTOCOL_TEXT: Growth inhibition of CCDC6-RET-BaF3 cells stably transfected with kinase (MTS)
# Type: cell-based
# CONDITION_DETAILS: 48 h, read-out: CCDC6-RET (IC50/nM)
GI50: recorded values
API: value field is a number in nM; no unit string.

Below: 5 compounds and their reported GI50.
COMPOUND: CN1CCN(Cc2ccc(NC(=O)c3cc(Oc4nc(-c5ccccc5)nc5nn(C)cc45)ccc3Cl)cc2C(F)(F)F)CC1 [IV-o-3]
UNIT: nM
GI50: 4310
//
COMPOUND: Cc1ccc(C(=O)Nc2cc(CN3CCN(C)CC3)cc(C(F)(F)F)c2)cc1Oc1nc(-c2ccncc2)nc2ccsc12 [VI-q-2]
UNIT: nM
GI50: 1520
//
COMPOUND: CN1CCN(Cc2ccc(C(=O)Nc3cc(Oc4nc(-c5ccc(O)cc5)nc5cc[nH]c45)ccc3Cl)cc2C(F)(F)F)CC1 [III-k-9]
UNIT: nM
GI50: 1190
//
COMPOUND: CN1CCN(Cc2cc(NC(=O)c3cccc(Oc4nc(-c5ccncc5)nc5cc[nH]c45)c3)cc(C(F)(F)F)c2)CC1 [III-p-2]
UNIT: nM
GI50: 449
//
COMPOUND: CN1CCN(Cc2ccc(NC(=O)c3cccc(Oc4nc(-c5ccncc5)nc5ccn(C)c45)c3)cc2C(F)(F)F)CC1 [III-l-4]
UNIT: nM
GI50: 18.7

Request: // fetch GI50; item: Cc1ccc(Oc2nc(-c3ccc(Cl)cc3)nc3cc[nH]c23)cc1NC(=O)c1ccc(CN2CCN(C)CC2)c(C(F)(F)F)c1 [III-j-11] ; system: CCDC6-RET-BaF3 (Homo sapiens)
Response: 1530

Request: // fetch GI50; item: CN1CCN(Cc2ccc(C(=O)Nc3cc(Oc4nc(-c5cccnc5)nc5ccn(C)c45)ccc3Cl)cc2C(F)(F)F)CC1 [III-k-3] ; system: CCDC6-RET-BaF3 (Homo sapiens)
Response: 1250

Request: // fetch GI50; item: Cc1ccc(C(=O)Nc2cccc(C(F)(F)F)c2)cc1Oc1nc(-c2cccnc2)nc2c1cnn2C [II-e-1] ; system: CCDC6-RET-BaF3 (Homo sapiens)
Response: 1970

Request: // fetch GI50; item: CN1CCN(Cc2ccc(NC(=O)c3cc(Oc4cc(-c5ccncc5)nc5sccc45)ccc3Cl)cc2C(F)(F)F)CC1 [VII-o-2] ; system: CCDC6-RET-BaF3 (Homo sapiens)
Response: 326

Request: // fetch GI50; item: Cc1ccc(C(=O)Nc2cc(CN3CCN(C)CC3)cc(C(F)(F)F)c2)cc1Oc1nc(-c2ccncc2)nc2cc[nH]c12 [III-q-2] ; system: CCDC6-RET-BaF3 (Homo sapiens)
Response: 351

Request: // fetch GI50; item: CN1CCN(Cc2ccc(NC(=O)c3cccc(Oc4cc(-c5ccncc5)nc5sccc45)c3)cc2C(F)(F)F)CC1 [VII-l-2] ; system: CCDC6-RET-BaF3 (Homo sapiens)
Response: 215

Request: // fetch GI50; item: Cc1ccc(C(=O)Nc2cc(C(F)(F)F)cc(C(F)(F)F)c2)cc1Oc1nc(-c2cccnc2)nc2c1cnn2C [II-v-1] ; system: CCDC6-RET-BaF3 (Homo sapiens)
Response: 7230

Request: // fetch GI50; item: CN1CCN(Cc2ccc(C(=O)Nc3cc(Oc4nc(-c5cccnc5)nc5c4cnn5C)ccc3Cl)cc2C(F)(F)F)CC1 [II-k-1] ; system: CCDC6-RET-BaF3 (Homo sapiens)
Response: 2070
